Target of assay: soluble guanylate cyclase (sGC), α1 and β1 subunits of guanylate cyclase expressed in Sf9 cells (Homo sapiens, UniProt Q02108+Q02153)
Construct: made in house; host or cells: Sf9 insect cells (baculovirus co-infection)
Sequence (Q02108 whole entry): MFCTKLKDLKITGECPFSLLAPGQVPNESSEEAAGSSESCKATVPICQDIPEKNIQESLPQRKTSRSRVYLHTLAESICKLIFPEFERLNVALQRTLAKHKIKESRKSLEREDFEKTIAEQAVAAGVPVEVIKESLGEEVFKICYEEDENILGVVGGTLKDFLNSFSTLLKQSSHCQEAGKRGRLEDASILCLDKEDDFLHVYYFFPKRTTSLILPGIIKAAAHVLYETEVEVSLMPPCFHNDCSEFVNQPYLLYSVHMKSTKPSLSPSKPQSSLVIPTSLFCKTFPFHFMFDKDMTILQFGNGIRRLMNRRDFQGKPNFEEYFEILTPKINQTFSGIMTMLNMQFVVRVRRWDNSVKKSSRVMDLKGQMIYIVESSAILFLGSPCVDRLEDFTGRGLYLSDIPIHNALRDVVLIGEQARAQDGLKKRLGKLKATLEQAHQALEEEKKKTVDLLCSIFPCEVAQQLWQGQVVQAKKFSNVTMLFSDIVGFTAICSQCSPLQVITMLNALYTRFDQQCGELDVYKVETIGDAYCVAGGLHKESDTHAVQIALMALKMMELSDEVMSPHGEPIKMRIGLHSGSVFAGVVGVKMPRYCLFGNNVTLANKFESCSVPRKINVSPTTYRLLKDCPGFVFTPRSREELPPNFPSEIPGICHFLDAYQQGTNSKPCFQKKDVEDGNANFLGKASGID
Sequence (Q02153 whole entry): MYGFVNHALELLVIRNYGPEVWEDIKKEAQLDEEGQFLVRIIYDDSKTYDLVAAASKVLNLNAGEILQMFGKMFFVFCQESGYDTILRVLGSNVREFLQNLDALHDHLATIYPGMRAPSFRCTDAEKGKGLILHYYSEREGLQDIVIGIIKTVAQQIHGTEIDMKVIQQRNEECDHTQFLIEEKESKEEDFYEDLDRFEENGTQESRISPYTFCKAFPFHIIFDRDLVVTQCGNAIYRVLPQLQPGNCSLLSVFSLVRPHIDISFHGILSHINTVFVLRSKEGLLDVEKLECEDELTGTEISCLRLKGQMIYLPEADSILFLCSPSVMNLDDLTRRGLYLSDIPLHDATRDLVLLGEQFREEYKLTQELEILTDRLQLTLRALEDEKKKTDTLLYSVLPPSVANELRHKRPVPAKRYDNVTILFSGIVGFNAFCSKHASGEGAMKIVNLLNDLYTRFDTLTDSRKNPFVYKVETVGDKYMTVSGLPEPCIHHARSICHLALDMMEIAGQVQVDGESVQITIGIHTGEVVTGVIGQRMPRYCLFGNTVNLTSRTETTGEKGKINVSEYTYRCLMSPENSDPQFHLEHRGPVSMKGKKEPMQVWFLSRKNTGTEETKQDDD
Assay comment: Guanylate cyclase assay (formation of cyclic GMP from GTP)
Type: biochemical
Measurement parameters: compound at 100 μM with 1 μM sodium nitro prusside (SNP); normalized with the activity of 100 μM YC-1 (without SNP) as 100%
Entry class follows Mean efficacy of compound combined with 1 μM of SNP, [%]: bin 1 = under 80%, bin 2 = from 80% up to 200%, bin 3 = 200% and over

O=C(/C=C/c1ccccc1Sc1ccc(Cl)cc1)NCCCCCO [Example 35] :: bin 3
CC(C)CCSc1ccccc1/C=C/C(=O)N1CCCC(O)C1 (centres unmarked) [Example 61] :: bin 2

Qu. Form: Item = CC(CCCC(C)(C)O)NC(=O)/C=C/c1ccccc1Sc1ccc(Cl)cc1 (centres unmarked) [Example 31] ; Class = ?
Ans. bin 2

Qu. Looking at O=C(/C=C/c1ccccc1Sc1ccc(Cl)cc1)NC1CCC(O)CC1 (centres unmarked) [Example 30] , which class would you pick?
Ans. bin 3

Qu. Class? Entry: O=C(/C=C/c1cccnc1Sc1ccc(Br)cc1)NC1CCC(O)CC1 (centres unmarked) [Example 18]
Ans. bin 2

Qu. Just checking, what class would you give O=C(/C=C/c1cccnc1Sc1ccc(Cl)cc1)NC1CCC(O)CC1 (centres unmarked) [Example 16] here?
Ans. bin 1

Qu. Returns: class label. Input: Cc1ccc(/C=C/C(=O)NC2CCC(O)CC2)c(Sc2ccc(Cl)cc2)n1 (centres unmarked) [Example 28]
Ans. bin 1

Qu. Category lookup for the compound O=C(CCc1cc(F)ccc1Sc1ccc(Cl)cc1)NCCCCO [Example 8]
Ans. bin 1

Origin of measurements: patent US20040121994A1
